- Test system: HEK-293T
- ASSAY OVERVIEW: Cytotoxicity against human HEK293T cells assessed as cell survival rate at 256 ug/ml incubated for 24 hrs by MTT assay
- Assay type: toxicity, cell-based
- CONDITION LABEL: dose 256 µg/ml
Starred links: 1 amine or outer side, 2 acyl side, 3 side chain; linkers in the order of their positions; H or OH if unused. Positions of bridges follow the written chain, without caps; N, C: chain ends. Non-standard residues stand in square brackets, D forms with d. Residues, ends and D or L forms follow the SMILES beside them. X1 = O=C([C@H](CCCCNCC=[*:3])N[*:1])[*:2]

{"columns": ["COMPOUND", "Activity"],
 "data": [
  ["CC(C)[C@H](N)C(=O)N[C@@H](CCCCN)C(=O)N[C@@H](CCCNC(=N)N)C(=O)N[C@@H](Cc1ccccc1)C(=O)N[C@@H](CCCCN)C(=O)N[C@H]1CCCCNC/C=C/CNCCCC[C@@H](C(=O)N[C@@H](Cc2ccccc2)C(=O)N[C@@H](CCCCN)C(=O)N[C@@H](CCCCN)C(=O)N[C@@H](Cc2ccccc2)C(=O)N[C@H](C(N)=O)C(C)C)NC(=O)[C@H](CCCNC(=N)N)NC(=O)[C@H](Cc2ccccc2)NC(=O)[C@H](Cc2ccccc2)NC1=O (H-VKRFK[X1]FFR[X1]FKKFV-NH2; staple (E) 6-10)", "Toxic"],
  ["CC(C)[C@H](N)C(=O)N[C@H]1CCCCNCC#CCNCCCC[C@@H](C(=O)N[C@@H](Cc2ccccc2)C(=O)N[C@@H](Cc2ccccc2)C(=O)N[C@@H](CCCNC(=N)N)C(=O)N[C@@H](CCCCN)C(=O)N[C@@H](Cc2ccccc2)C(=O)N[C@@H](CCCCN)C(=O)N[C@@H](CCCCN)C(=O)N[C@@H](Cc2ccccc2)C(=O)N[C@H](C(N)=O)C(C)C)NC(=O)[C@H](CCCCN)NC(=O)[C@H](Cc2ccccc2)NC(=O)[C@H](CCCNC(=N)N)NC1=O", "Toxic"],
  ["CC(C)[C@H](N)C(=O)N[C@@H](CCCCN)C(=O)N[C@@H](CCCNC(=N)N)C(=O)N[C@@H](Cc1ccccc1)C(=O)N[C@@H](CCCCN)C(=O)N[C@H]1CCCCNCC#CCNCCCC[C@@H](C(=O)N[C@@H](Cc2ccccc2)C(=O)N[C@@H](CCCCN)C(=O)N[C@@H](CCCCN)C(=O)N[C@@H](Cc2ccccc2)C(=O)N[C@H](C(N)=O)C(C)C)NC(=O)[C@H](CCCNC(=N)N)NC(=O)[C@H](Cc2ccccc2)NC(=O)[C@H](Cc2ccccc2)NC1=O", "Toxic"]
]}

----------
- Tested on: Erythrocyte
- ASSAY OVERVIEW: Hemolytic activity against human RBC assessed as concentration required to cause 10% hemolysis
- Format: toxicity, cell-based
Starred links: 1 amine or outer side, 2 acyl side, 3 side chain; linkers in the order of their positions; H or OH if unused. Positions of bridges follow the written chain, without caps; N, C: chain ends. Non-standard residues stand in square brackets, D forms with d. Residues, ends and D or L forms follow the SMILES beside them. X1 = O=C([C@H](CCCCNCC=[*:3])N[*:1])[*:2]
Measured MHC by item
MEASURED ATTRIBUTE: MHC

{"columns": ["MOLECULE", "MEASURED ATTRIBUTE", "REPORTED VALUE"],
 "data": [
  ["CC[C@H](C)[C@H](NC(=O)[C@@H]1CCCCNC/C=C/CNCCCC[C@H](NC(=O)[C@H](CC(C)C)NC(=O)[C@@H](NC(=O)[C@H](CCCCN)NC(=O)CNC(=O)[C@H](Cc2ccccc2)NC(=O)[C@@H](N)Cc2ccccc2)C(C)C)C(=O)N[C@@H](CC(C)C)C(=O)N[C@@H]([C@@H](C)CC)C(=O)N[C@@H](CCCNC(=N)N)C(=O)N1)C(=O)N[C@@H](Cc1ccccc1)C(N)=O (H-FFGKVL[X1]LIR[X1]IF-NH2; staple (E) 7-11)", "MHC", "16 µg/mL"],
  ["CC[C@H](C)[C@H](NC(=O)[C@H](CCCCN)NC(=O)[C@H](CC(N)=O)NC(=O)[C@H](CC(C)C)NC(=O)[C@@H](NC(=O)[C@H](CCCCN)NC(=O)[C@@H]1CCCN1)[C@@H](C)CC)C(=O)N[C@@H](CC(C)C)C(=O)NCC(=O)N[C@@H](CCCCN)C(=O)N[C@H](C(=O)N[C@@H](CC(C)C)C(=O)N[C@@H](CCCNC(=N)N)C(=O)N[C@@H](CC(C)C)C(=O)N[C@@H](C)C(=O)N[C@@H](C)C(=O)N[C@@H](C)C(=O)N[C@@H](Cc1ccccc1)C(=O)N[C@@H](CCCCN)C(N)=O)[C@@H](C)CC (H-PKILNKILGKILRLAAAFK-NH2)", "MHC", "16 µg/mL"]
]}

----------
- System: HEK-293T
- ASSAY OVERVIEW: Cytotoxicity against human HEK293T cells assessed as cell survival rate at 256 ug/ml incubated for 24 hrs by MTT assay
- Type: toxicity, cell-based
- CONDITION LABEL: dose 256 µg/ml
MEASURED ATTRIBUTE: Activity

{"columns": ["CHEMICAL STRING", "REPORTED VALUE"],
 "data": [
  ["CC(C)[C@H](N)C(=O)N[C@@H](CCCCN)C(=O)N[C@@H](CCCNC(=N)N)C(=O)N[C@@H](Cc1ccccc1)C(=O)N[C@@H](CCCCN)C(=O)N[C@H]1CCCCNCc2ccccc2CNCCCC[C@@H](C(=O)N[C@@H](Cc2ccccc2)C(=O)N[C@@H](CCCCN)C(=O)N[C@@H](CCCCN)C(=O)N[C@@H](Cc2ccccc2)C(=O)N[C@H](C(N)=O)C(C)C)NC(=O)[C@H](CCCNC(=N)N)NC(=O)[C@H](Cc2ccccc2)NC(=O)[C@H](Cc2ccccc2)NC1=O", "Toxic"]
]}

----------
- Tested on: Erythrocyte
- ASSAY OVERVIEW: Hemolytic activity against human RBC assessed as concentration required to cause 10% hemolysis
- Assay type: toxicity, cell-based
Starred links: 1 amine or outer side, 2 acyl side, 3 side chain; linkers in the order of their positions; H or OH if unused. Positions of bridges follow the written chain, without caps; N, C: chain ends. Non-standard residues stand in square brackets, D forms with d. Residues, ends and D or L forms follow the SMILES beside them. X1 = O=C([C@H](CCCCNCC=[*:3])N[*:1])[*:2]

{"columns": ["COMPOUND", "MHC"],
 "data": [
  ["CC(C)[C@H](N)C(=O)N[C@@H](CCCCN)C(=O)N[C@@H](CCCNC(=N)N)C(=O)N[C@@H](Cc1ccccc1)C(=O)N[C@@H](CCCCN)C(=O)N[C@H]1CCCCNCC#CCNCCCC[C@@H](C(=O)N[C@@H](Cc2ccccc2)C(=O)N[C@@H](CCCCN)C(=O)N[C@@H](CCCCN)C(=O)N[C@@H](Cc2ccccc2)C(=O)N[C@H](C(N)=O)C(C)C)NC(=O)[C@H](CCCNC(=N)N)NC(=O)[C@H](Cc2ccccc2)NC(=O)[C@H](Cc2ccccc2)NC1=O", "> 128 µg/mL"],
  ["CC(C)[C@H](N)C(=O)N[C@@H](CCCCN)C(=O)N[C@@H](CCCNC(=N)N)C(=O)N[C@@H](Cc1ccccc1)C(=O)N[C@@H](CCCCN)C(=O)N[C@H]1CCCCNC/C=C/CNCCCC[C@@H](C(=O)N[C@@H](Cc2ccccc2)C(=O)N[C@@H](CCCCN)C(=O)N[C@@H](CCCCN)C(=O)N[C@@H](Cc2ccccc2)C(=O)N[C@H](C(N)=O)C(C)C)NC(=O)[C@H](CCCNC(=N)N)NC(=O)[C@H](Cc2ccccc2)NC(=O)[C@H](Cc2ccccc2)NC1=O (H-VKRFK[X1]FFR[X1]FKKFV-NH2; staple (E) 6-10)", "> 128 µg/mL"]
]}

----------
- Test system: Erythrocyte
- ASSAY OVERVIEW: Hemolytic activity against human RBC assessed as concentration required to cause 10% hemolysis
- Type: toxicity, cell-based
Starred links: 1 amine or outer side, 2 acyl side, 3 side chain; linkers in the order of their positions; H or OH if unused. Positions of bridges follow the written chain, without caps; N, C: chain ends. Non-standard residues stand in square brackets, D forms with d. Residues, ends and D or L forms follow the SMILES beside them. X1 = O=C([C@H](CCCCNCC=[*:3])N[*:1])[*:2]
Measured MHC by item

{"columns": ["MOLECULE", "MHC (µg/mL)"],
 "data": [
  ["CC(C)C[C@H](NC(=O)[C@H](C)NC(=O)[C@H](CCCCN)NC(=O)[C@H](C)NC(=O)[C@H](C)NC(=O)CNC(=O)[C@@H]1CCCCNC/C=C/CNCCCC[C@H](NC(=O)[C@H](Cc2ccccc2)NC(=O)CN)C(=O)N[C@@H](CC(=O)O)C(=O)N[C@@H](CC(C)C)C(=O)N[C@@H](CC(C)C)C(=O)N1)C(=O)N[C@H](C(=O)N[C@@H](CCCCN)C(=O)N[C@H](C(=O)N[C@H](C(=O)N[C@@H](CC(C)C)C(=O)N[C@@H](Cc1ccccc1)C(N)=O)C(C)C)[C@@H](C)O)C(C)C (H-GF[X1]DLL[X1]GAAKALVKTVLF-NH2; staple (E) 3-7)", 32],
  ["CC[C@H](C)[C@H](NC(=O)[C@H](CCCCN)NC(=O)[C@H](CCCNC(=N)N)NC(=O)[C@@H](NC(=O)[C@H](CC(C)C)NC(=O)[C@H](CCCCN)NC(=O)[C@H](CC(C)C)NC(=O)[C@@H](NC(=O)[C@H](CCCCN)NC(=O)CNC(=O)[C@H](Cc1ccccc1)NC(=O)[C@@H](N)Cc1ccccc1)C(C)C)[C@@H](C)CC)C(=O)N[C@@H](Cc1ccccc1)C(N)=O (H-FFGKVLKLIRKIF-NH2)", 16]
]}
